System: Escherichia coli
Protocol: Inhibition of Escherichia coli D110 DNA gyrase after 30 mins by supercoiling assay
Assay Endpoint: Activity (µg/mL)

# example entries with known answers
>>> recorded_value("N#Cc1ccc(NCc2cc(Cl)ccc2O)cc1")
2
>>> recorded_value("COC(=O)c1c(C)c(OC)cc(O)c1CNc1cc(Cl)cc(Cl)c1")
4
>>> recorded_value("CO[C@@H]1[C@@H](OC(N)=O)[C@@H](O)[C@H](Oc2ccc3c(O)c(NC(=O)c4ccc(O)c(CC=C(C)C)c4)c(=O)oc3c2C)OC1(C)C")
0.25
>>> recorded_value("COc1cc(O)c2c(c1C)C(=O)N(c1cnc3ccccc3c1)C2")
0.5
>>> recorded_value("COc1cc(O)c2c(c1C)C(=O)N1c3cccnc3COC21 (stereo not given)")
0.13
>>> recorded_value("COc1cc(O)c2c(c1C)C(=O)N1c3ccccc3COC21 (stereo not given)")
0.5
>>> recorded_value("CCCCSC1c2c(O)cc(OC)c(C)c2C(=O)N1c1ccc(OC)cc1 (stereo not given)")
16
>>> recorded_value("COc1cc(O)c2c(c1C)C(=O)N(c1cccnc1)C2")
2

a: COc1ccc(N2Cc3c(O)cc(OC)c(C)c3C2=O)cc1
b: Oc1ccc(Cl)cc1CNc1cc(Cl)cc(Cl)c1
c: COc1ccc(N2C(=O)c3c(C)c(OC)cc(O)c3C2OC)cc1 (stereo not given)
d: COc1cc(O)c2c(c1C)C(=O)N(c1ccc3ncccc3c1)C2
e: COc1ccc(N2C(=O)c3c(C)c(OC)cc(O)c3C2C(Cl)C(C)=O)cc1 (stereo not given)
Please list these in order of increasing Activity. Thank you! Present the labels in the sequence the task asks for.
d, b, a, c, e

###

Test system: Escherichia coli
Protocol: Inhibition of Escherichia coli D110 DNA gyrase after 30 mins by supercoiling assay
Assay Endpoint: Activity (µg/mL)

>>> recorded_value("COc1cc(O)c2c(c1C)C(=O)N(c1cccc(C(=O)O)c1)C2")
8

a: COc1cc(O)c2c(c1C)C(=O)N(c1ccc3[nH]ncc3c1)C2
b: COc1ccc(N2C(=O)c3c(C)c(OC)cc(O)c3C2CC=O)cc1 (configuration not stated)
c: COc1cc(O)c2c(c1C)C(=O)N(c1cccc(N)c1)C2
Sort the 3 molecules by Activity; largest first, smallest last. Sort and list the labels as requested.
b, c, a
(b: 31 µg/mL, c: 2 µg/mL, a: 1 µg/mL)

###

Test system: Staphylococcus aureus
Protocol: Antibacterial activity against Staphylococcus aureus ATCC 25923 by twofold agar dilution method
Format: functional
Consider the following molecules and their measured MIC readings.
Lab book: enter the figure in µg/mL, no units written.

>>> recorded_value("Oc1ccc(Cl)cc1CNc1ccc(Cl)cc1")
16

Quick check: MIC of `COc1ccc2c(c1)CC[C@@H]1c3c(O)cc(OC)c(C)c3C(=O)N21` ?
32

###

System: Escherichia coli
Protocol: Inhibition of Escherichia coli D110 DNA gyrase after 30 mins by supercoiling assay
Assay Endpoint: Activity (µg/mL)

Example entries and their recorded answers appear below.
>>> recorded_value("NS(=O)(=O)c1ccc(NCc2cc(Cl)ccc2O)cc1")
63
>>> recorded_value("Oc1c(Cl)cc(Cl)cc1CNc1ccc(Cl)cc1")
16
>>> recorded_value("COc1cc(O)c2c(c1C)C(=O)N1c3ccc(Cl)cc3[C@@H](O)C[C@H]21")
1
>>> recorded_value("COc1cc(O)c2c(c1C)C(=O)N(c1cccc(CC(=O)O)c1)C2")
2
>>> recorded_value("COc1ccc(N2C(=O)c3c(C)c(OC)cc(O)c3C2Sc2ccc(C)cc2)cc1 (configuration not stated)")
31
>>> recorded_value("Oc1ccc(Cl)cc1CNc1ccc(Cl)cc1")
5
>>> recorded_value("COc1cc(O)c2c(c1C)C(=O)N(c1ccc(S(N)(=O)=O)cc1)C2")
1
>>> recorded_value("Oc1cccc(CNc2ccc(Cl)cc2)c1O")
16
>>> recorded_value("C=CCC1c2c(O)cc(OC)c(C)c2C(=O)N1c1ccc(OC)cc1 (configuration not stated)")
2
>>> recorded_value("COc1cc(O)c2c(c1C)C(=O)N1c3ccc(Cl)cc3CC[C@H]21")
0.25

1: Oc1ccc(CNc2ccc(Cl)cc2)c(O)c1
2: Oc1ccc(Cl)cc1CNc1cccc(Cl)c1
Input pair: 1 , 2 . Output: entry with lower Activity. Give the chosen item's label as your response.
2

1: COc1ccc(N2C(=O)c3c(C)c(OC)cc(O)c3C2CCO)cc1 (configuration not stated)
2: Oc1ccc(Br)cc1CNc1ccc(Cl)cc1
3: COC(=O)c1c(C)c(OC)cc(O)c1CNc1ccc2ncccc2c1
Rank by Activity (largest to smallest). Thanks in advance for listing the labels in the requested order.
2, 3, 1
